Values from patent US5116995A

pIC50: −log10 of the molar value.
Consider compounds characterized by their pIC50 with sigma receptor (Rattus norvegicus, UniProt Q9R0C9).
Sequence (Q9R0C9 whole entry): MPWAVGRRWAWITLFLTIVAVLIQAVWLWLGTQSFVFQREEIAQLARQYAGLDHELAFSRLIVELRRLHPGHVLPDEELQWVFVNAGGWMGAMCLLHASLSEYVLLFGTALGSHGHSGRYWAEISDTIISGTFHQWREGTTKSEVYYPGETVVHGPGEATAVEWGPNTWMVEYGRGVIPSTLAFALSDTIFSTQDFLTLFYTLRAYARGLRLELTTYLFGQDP

{"COMPOUND": "CCCN(CCC)Cc1cccc2[nH]c3c(C)ccc(C)c3c12.Cl [Test drug B, hydrochloride]", "pIC50": 5.99}
{"COMPOUND": "CCCN(CCC)CCc1cccc2[nH]c3c(C)ccc(C)c3c12.Cl [Test drug C, hydrochloride]", "pIC50": 8.32}
{"COMPOUND": "CCCN(CCC)Cc1cccc2[nH]c3ccccc3c12.Cl [Test drug A, hydrochloride]", "pIC50": 6.05}
{"COMPOUND": "CCCN1CCCC(c2cccc(O)c2)C1 (single isomer, unassigned) [3-PPP, reference compound]", "pIC50": 7.61}
